Test Description: Standard protocol for determination of kcat and KM (continuous spectrophotometric assay, Acetyl CoA hydrolysis at 235 nm)
Assay type: biochemical
Condition Set: purified protein; about 23° C.; 20 mM HEPES pH 6.8, 10% ethylene glycol, 0.2 mM acetyl CoA
Each entry below carries its reported Kcat.
Numbers only; they are read as s⁻¹.

| Molecule | Kcat, s⁻¹ |
| --- | --- |
| SEQ ID NO: 356: GAT polypeptide (protein, 30G8, GAT polypeptide) MIEVKPINAEDTYEIRHRILRPNQPLEACMFETDLLGGAFHLGGYYQGKLISIASFHQAEHSELEGQKQYQLRGMATLEGYREQKAGSTLIRHAEELLRKKGADLLWCNARTSVSGYYKKLGFSEQGEVYDIPPIGPHILMYKKLT | 0.17 |
| SEQ ID NO: 320: GAT polypeptide (protein, 14_7A1, GAT polypeptide) MIEVKPINAEDTYEIRHRILRPNQPLEACMYETDLLRGTFHLGGYYRGKLVSIASFHQAEHPELEGQKQYQLRGMATLEEYREQKAGSTLIRHAEELLRKKGADLLWCNARTSASGYYKKLGFSEQGEVYDTPPAGPHILMYKKLT | 2.597 |

As a next step, examine the molecule that follows.
I would be grateful if you could share the reported Kcat for SEQ ID NO: 463: GAT polypeptide (protein, 11_3C6, GAT polypeptide) MLEVKPINAEDTYELRHKILRPNQPIEACMFESDLLRGAFHLGGFYGGKLISIASFHQAEHSDLEGQKQYQLRGMATLEGYREQKAGSTLIRHAEEILRKRGADLLWCNARTSASGYYKKLGFSEQGEIFDTPPVGPHILMYKRIT . 3.074
